Measured kon, listed per entry for reference.
# SYSTEM TESTED: T1, cynomolgus monkey IL-33 expressed with a C-terminal hexahistidine tag (cynomolgus monkey)
# T1 construct: also called MfIL-33-6His; Mf-IL-33-6His
# T1 chain: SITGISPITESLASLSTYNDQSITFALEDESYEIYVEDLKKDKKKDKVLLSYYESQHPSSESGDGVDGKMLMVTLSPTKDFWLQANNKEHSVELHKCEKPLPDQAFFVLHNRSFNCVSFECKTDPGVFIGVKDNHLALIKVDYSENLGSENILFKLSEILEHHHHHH
# ASSAY SUMMARY: SPR 25C pH7.4, mAb captured
Give the value in M⁻¹ s⁻¹ but do not write M⁻¹ s⁻¹ after it.

Entry H4H9670P (antibody, V domains shown, Human IgG4 Fc (H4H)) VH: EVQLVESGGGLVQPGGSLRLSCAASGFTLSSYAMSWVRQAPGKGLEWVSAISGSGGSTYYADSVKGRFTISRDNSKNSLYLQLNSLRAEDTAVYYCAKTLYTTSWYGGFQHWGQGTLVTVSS VL: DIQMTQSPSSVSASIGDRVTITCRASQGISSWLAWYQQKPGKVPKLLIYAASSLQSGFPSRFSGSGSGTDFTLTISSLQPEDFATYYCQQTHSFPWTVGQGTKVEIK — recorded kon = 440000

For record H1M9559N (antibody, mouse IgG1, V domains shown, Human variable domains, mouse IgG1 Fc (H1M)) VH: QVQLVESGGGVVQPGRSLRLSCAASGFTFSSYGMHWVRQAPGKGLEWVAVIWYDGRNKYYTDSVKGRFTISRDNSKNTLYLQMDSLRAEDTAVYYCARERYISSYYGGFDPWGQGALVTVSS VL: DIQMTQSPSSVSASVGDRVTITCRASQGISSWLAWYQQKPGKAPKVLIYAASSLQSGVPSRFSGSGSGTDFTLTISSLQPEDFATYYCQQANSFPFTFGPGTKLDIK the listed kon is 321000
